experimental-target: 3-hydroxy-3-methylglutaryl-coenzyme A reductase (Rattus norvegicus) (UniProt P51639)
Sequence (P51639 whole entry): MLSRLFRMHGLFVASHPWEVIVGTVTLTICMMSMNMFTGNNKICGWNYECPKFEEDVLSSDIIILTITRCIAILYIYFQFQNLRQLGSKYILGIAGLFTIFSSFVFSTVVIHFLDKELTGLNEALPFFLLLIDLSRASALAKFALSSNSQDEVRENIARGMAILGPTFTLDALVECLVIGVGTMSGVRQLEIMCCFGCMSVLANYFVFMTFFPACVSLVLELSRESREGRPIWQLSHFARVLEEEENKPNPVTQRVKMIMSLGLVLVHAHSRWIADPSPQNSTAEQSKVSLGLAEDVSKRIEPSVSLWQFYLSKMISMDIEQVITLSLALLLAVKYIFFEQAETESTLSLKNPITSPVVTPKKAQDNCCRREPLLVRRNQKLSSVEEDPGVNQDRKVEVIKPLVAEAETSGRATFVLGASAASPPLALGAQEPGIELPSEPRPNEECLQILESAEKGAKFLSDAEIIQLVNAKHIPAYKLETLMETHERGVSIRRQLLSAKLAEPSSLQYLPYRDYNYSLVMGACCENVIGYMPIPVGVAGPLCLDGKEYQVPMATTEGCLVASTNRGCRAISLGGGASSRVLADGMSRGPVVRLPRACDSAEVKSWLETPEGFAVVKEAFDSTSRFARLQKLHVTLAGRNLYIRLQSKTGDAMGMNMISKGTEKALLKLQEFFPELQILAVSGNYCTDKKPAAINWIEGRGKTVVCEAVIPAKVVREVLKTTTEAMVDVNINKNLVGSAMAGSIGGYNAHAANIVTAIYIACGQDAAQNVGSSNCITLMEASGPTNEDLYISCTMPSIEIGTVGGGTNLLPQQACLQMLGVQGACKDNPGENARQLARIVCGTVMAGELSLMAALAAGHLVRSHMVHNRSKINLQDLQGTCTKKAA
test-protocol: Tested in vitro for relative potency against HMG-CoA reductase in a microsomal preparation (relative to compactin =1)
Type: microsomes
cond: Microsome
Label TRUE when Relative potency >= 1; otherwise FALSE.

Look over these answered cases.
                           substance_smiles  category_label
0  CCCCCCCCc1sc(C(C)C)c(/C=C/[C@@H](O)C[C@@H](O)CC(=O)O)c1-c1ccc(F)cc1           FALSE
1  CC(C)c1sc(-c2ccccc2)c(-c2cccs2)c1/C=C/[C@@H](O)C[C@@H](O)CC(=O)O           FALSE
2  CC(C)=Cc1c(-c2ccccc2)sc(C(C)C)c1/C=C/[C@@H](O)C[C@@H](O)CC(=O)O            TRUE
3  CC(C)c1sc(-c2ccc(Cl)cc2)c(-c2ccc(F)cc2)c1/C=C/[C@@H](O)C[C@@H](O)CC(=O)[O-].[Na+]            TRUE
4  COc1ccc(-c2c(-c3ccccc3)sc(C(C)C)c2/C=C/[C@@H](O)C[C@@H](O)CC(=O)O)cc1           FALSE

QUERY: Determine whether measured Relative potency meets or exceeds 1 for "CC(C)c1sc(-c2ccccc2)c(-c2cccc(C(F)(F)F)c2)c1/C=C/[C@@H](O)C[C@@H](O)CC(=O)O"
RESULT: FALSE

QUERY: Does the compound "CC(C)c1sc(-c2ccccc2)c(-c2ccc(F)cc2)c1/C=C/[C@@H](O)C[C@@H](O)CC(=O)[O-].[Na+]" have recorded Relative potency that is 1 or more?
RESULT: TRUE
